Each entry below carries its reported GI50.
# testTarget: Ba/F3 LMNA-NTRK1-F589L (Homo sapiens, UniProt P04629, F589L, cells depend on it)
# Construct: fused on or other part: N-terminal part of LMNA as fusion partner (part of the key); P02545 (Prelamin-A/C)
# Sequence (P04629 whole entry F589L, the tested form may be a part): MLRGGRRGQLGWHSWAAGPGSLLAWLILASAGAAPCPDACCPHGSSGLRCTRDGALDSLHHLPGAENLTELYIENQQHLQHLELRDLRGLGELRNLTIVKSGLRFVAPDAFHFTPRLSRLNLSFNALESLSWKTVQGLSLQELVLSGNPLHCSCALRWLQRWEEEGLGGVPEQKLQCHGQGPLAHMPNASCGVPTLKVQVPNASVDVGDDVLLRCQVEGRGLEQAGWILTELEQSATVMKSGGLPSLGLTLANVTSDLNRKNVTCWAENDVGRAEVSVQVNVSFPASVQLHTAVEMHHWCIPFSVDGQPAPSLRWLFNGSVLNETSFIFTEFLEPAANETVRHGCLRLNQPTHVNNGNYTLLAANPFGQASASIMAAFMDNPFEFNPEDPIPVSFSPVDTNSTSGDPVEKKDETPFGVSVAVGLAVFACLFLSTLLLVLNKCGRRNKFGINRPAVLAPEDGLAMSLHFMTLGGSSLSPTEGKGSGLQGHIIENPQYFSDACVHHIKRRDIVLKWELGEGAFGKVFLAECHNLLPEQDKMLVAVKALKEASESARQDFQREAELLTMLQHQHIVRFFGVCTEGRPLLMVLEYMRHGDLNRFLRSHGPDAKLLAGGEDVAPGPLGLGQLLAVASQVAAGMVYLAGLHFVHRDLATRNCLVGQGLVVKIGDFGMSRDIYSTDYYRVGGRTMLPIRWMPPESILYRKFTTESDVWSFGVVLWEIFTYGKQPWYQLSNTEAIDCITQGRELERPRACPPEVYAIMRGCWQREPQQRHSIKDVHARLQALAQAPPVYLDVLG
# protocol: Inhibitory activity against cell proliferation (CellTiter-Glo, 72 hours)
# Format: cell-based
# particulars: read-out: Half maximal inhibitory concentration IC50 of cells, Ba/F3 LMNA-NTRK1-F589L
# Procedure: Adenosine Triphosphate (ATP) is an energy carrier commonly used in various life activities in nature, and is the minimum unit for energy storage and transfer. The CellTiter-Glo™ cell viability assay kit uses luciferase as an assay agent, which requires the involvement of ATP in luminescence. The CellTiter-Glo™ reagent is added into cell culture medium to measure the luminescence value. […] Therefore, the proliferation of cells can be detected by detecting the ATP content using the CellTiter-Glo kit. […]

Would you please look over these solved cases?
- compound: "C[C@@H]1CCc2ncc(F)cc2[C@H]2CCCN2c2ccn3ncc(c3n2)C(=O)N1 [LOXO-195, reference compound]"
  observedResult: "0.044 µM"
- compound: "C[C@H]1CNC(=O)c2cnn3ccc(nc23)N2CCOC[C@@H]2c2cc(F)cnc2O1 [WX004B]"
  observedResult: "0.0374 µM"
- compound: "C[C@@H]1COC[C@@H]2c3cc(F)cnc3O[C@@H](C)CNC(=O)c3cnn4ccc(nc34)N12 [WX008]"
  observedResult: "0.204 µM"
- compound: "C[C@@H]1COC[C@@H]2c3cc(F)cnc3OCC3(CC3)NC(=O)c3cnn4ccc(nc34)N12 [WX007]"
  observedResult: "0.1 µM"

// field: GI50; key: O=C1N[C@@H]2COC[C@@H]2Oc2ncc(F)cc2C2COCCN2c2ccn3ncc1c3n2 (some centres unmarked) [WX005A] ; value = 0.0566 µM

// field: GI50; key: O=C1NC2(CC2)COc2ncc(F)cc2C2COCCN2c2ccn3ncc1c3n2 (single isomer, unassigned) [WX001B] ; value = 0.0077 µM

// field: GI50; key: O=C1NC2(CC2)COc2ncc(F)cc2[C@H]2CCOCCN2c2ccn3ncc1c3n2 [WX009A] ; value = 0.0158 µM

// field: GI50; key: C[C@@H]1COc2ncc(F)cc2[C@H]2COC[C@@H](C)N2c2ccn3ncc(c3n2)C(=O)N1 [WX006] ; value = 0.189 µM

----------
Each entry below carries its reported GI50.
# testTarget: BaF3 LMNA-NTRK1-G595R (Homo sapiens, UniProt P04629, G595R, cells depend on it)
# Construct: fused on or other part: N-terminal part of LMNA as fusion partner (part of the key); P02545 (Prelamin-A/C)
# Sequence (P04629 whole entry G595R, the tested form may be a part): as the sequence (P04629 whole entry F589L, the tested form may be a part) above, with L589F, G595R counted along it
# protocol: Inhibitory activity against cell proliferation (CellTiter-Glo, 72 hours)
# Format: cell-based
# particulars: read-out: Half maximal inhibitory concentration IC50 of cells, BaF3 LMNA-NTRK1-G595R
Report as a plain number; the unit nM is understood.

Would you please look over these solved cases?
- molecule: "C[C@@H]1CCc2ncc(F)cc2[C@H]2CCCN2c2ccn3ncc(c3n2)C(=O)N1 [LOXO-195, reference compound]"
  GI50 (nM): 6.8
- molecule: "O=C1NC2(CC2)COc2ncc(F)cc2[C@H]2CCOCCN2c2ccn3ncc1c3n2 [WX009A]"
  GI50 (nM): 7.4
- molecule: "C[C@@H]1COC[C@@H]2c3cc(F)cnc3O[C@@H](C)CNC(=O)c3cnn4ccc(nc34)N12"
  GI50 (nM): 5

// field: GI50; key: O=C1NC2(CC2)COc2ccc(F)cc2C2CCCCN2c2ccn3ncc1c3n2 (single isomer, unassigned) [WX002A] ; value = 0.4

----------
# protocol: Pharmacokinetic test of compounds in rats (plasma, LC/MS/MS)
# Type: in vivo, male SD rats
# particulars: IV, 3 mg/kg
quantityName: Half-life T1/2 (min)
Report as a plain number; the unit min is understood.

- compound: "C[C@@H]1COC[C@@H]2c3cc(F)cnc3O[C@@H](C)CNC(=O)c3cnn4ccc(nc34)N12 [WX008]"
  unitText: "min"
  Half-life T1/2: 30
- compound: "O=C1NC2(CC2)COc2ncc(F)cc2[C@H]2CCOCCN2c2ccn3ncc1c3n2 [WX009A]"
  unitText: "min"
  Half-life T1/2: 54

// field: Half-life T1/2; key: C[C@H]1CNC(=O)c2cnn3ccc(nc23)N2CCOC[C@@H]2c2cc(F)cnc2O1 [WX004B] ; value = 36

// field: Half-life T1/2; key: C[C@@H]1COc2ncc(F)cc2[C@H]2COC[C@@H](C)N2c2ccn3ncc(c3n2)C(=O)N1 [WX006] ; value = 36

----------
Each entry below carries its reported bioavailability.
# protocol: Pharmacokinetic test of compounds in rats (plasma, LC/MS/MS)
# Assay type: in vivo, male SD rats
# particulars: male, SD, rat, plasma, PO, 10 mg/kg, read-out: Bioavailability F %
Report as a plain number; the unit % is understood.

// field: bioavailability; key: O=C(Nc1cnn2ccc(N3CCC[C@@H]3c3cc(F)ccc3F)nc12)N1CC[C@H](O)C1 [LOXO-101, larotrectinib, reference compound] ; value = 23

// field: bioavailability; key: O=C1NC2(CC2)COc2ncc(F)cc2C2COCCN2c2ccn3ncc1c3n2 (single isomer, unassigned) [WX001B] ; value = 39

----------
# protocol: Pharmacokinetic test of compounds in rats (plasma, LC/MS/MS)
# Type: in vivo, male SD rats
# particulars: PO, 10 mg/kg
quantityName: Bioavailability F % (%)
Report as a plain number; the unit % is understood.

- compound: "C[C@H]1CNC(=O)c2cnn3ccc(nc23)N2CCOC[C@@H]2c2cc(F)cnc2O1 [WX004B]"
  Bioavailability F % (%): 35
- compound: "O=C1NC2(CC2)COc2ncc(F)cc2[C@H]2CCOCCN2c2ccn3ncc1c3n2 [WX009A]"
  Bioavailability F % (%): 49
- compound: "C[C@@H]1COc2ncc(F)cc2[C@H]2COC[C@@H](C)N2c2ccn3ncc(c3n2)C(=O)N1 [WX006]"
  Bioavailability F % (%): 53

// field: Bioavailability F %; key: C[C@@H]1COC[C@@H]2c3cc(F)cnc3O[C@@H](C)CNC(=O)c3cnn4ccc(nc34)N12 [WX008] ; value = 25

----------
# protocol: Pharmacokinetic test of compounds in mice (plasma, LC/MS/MS)
# Type: in vivo, male CD-1 mice
# particulars: PO, 10 mg/kg, read-out: Peak concentration Cmax
quantityName: Cmax (µM)
Report as a plain number; the unit µM is understood.

// field: Cmax; key: C[C@H]1CNC(=O)c2cnn3ccc(nc23)N2CCOC[C@@H]2c2cc(F)cnc2O1 [WX004B] ; value = 11.1

----------
Each entry below carries its reported GI50.
# testTarget: BaF3 LMNA-NTRK1-G595R (Homo sapiens, UniProt P04629, G595R, cells depend on it)
# Construct: fused on or other part: N-terminal part of LMNA as fusion partner (part of the key); P02545 (Prelamin-A/C)
# protocol: Inhibitory activity against cell proliferation (CellTiter-Glo, 72 hours)
# Format: cell-based
# particulars: read-out: Half maximal inhibitory concentration IC50 of cells, BaF3 LMNA-NTRK1-G595R
Report as a plain number; the unit nM is understood.

Would you please look over these solved cases?
- compound: "C[C@@H]1COC[C@@H]2c3cc(F)cnc3OCC3(CC3)NC(=O)c3cnn4ccc(nc34)N12"
  testTarget: "BaF3 LMNA-NTRK1-G595R (Homo sapiens, UniProt P04629, G595R, cells depend on it)"
  unitText: "nM"
  GI50: 6.4
- compound: "O=C1NC2(CC2)COc2ncc(F)cc2C2COCCN2c2ccn3ncc1c3n2 (single isomer, unassigned) [WX001B]"
  testTarget: "BaF3 LMNA-NTRK1-G595R (Homo sapiens, UniProt P04629, G595R, cells depend on it)"
  unitText: "nM"
  GI50: 2.7
- compound: "C[C@@H]1COc2ncc(F)cc2[C@H]2COC[C@@H](C)N2c2ccn3ncc(c3n2)C(=O)N1"
  testTarget: "BaF3 LMNA-NTRK1-G595R (Homo sapiens, UniProt P04629, G595R, cells depend on it)"
  unitText: "nM"
  GI50: 8.4

// field: GI50; key: O=C1N[C@@H]2COC[C@@H]2Oc2ncc(F)cc2C2COCCN2c2ccn3ncc1c3n2 (some centres unmarked) [WX005A] ; value = 5.2

// field: GI50; key: C[C@H]1CNC(=O)c2cnn3ccc(nc23)N2CCOC[C@@H]2c2cc(F)cnc2O1 [WX004B] ; value = 1.2

----------
Each entry below carries its reported Vd.
# protocol: Pharmacokinetic test of compounds in mice (plasma, LC/MS/MS)
# Assay type: in vivo, male CD-1 mice
# particulars: male, CD-1, mouse, plasma, IV, 3 mg/kg, read-out: Apparent volume of distribution Vd
Report as a plain number; the unit L/kg is understood.

// field: Vd; key: O=C(Nc1cnn2ccc(N3CCC[C@@H]3c3cc(F)ccc3F)nc12)N1CC[C@H](O)C1 [LOXO-101, larotrectinib, reference compound] ; value = 0.97

// field: Vd; key: C[C@@H]1CCc2ncc(F)cc2[C@H]2CCCN2c2ccn3ncc(c3n2)C(=O)N1 [LOXO-195, reference compound] ; value = 0.5

// field: Vd; key: O=C1NC2(CC2)COc2ncc(F)cc2C2COCCN2c2ccn3ncc1c3n2 (single isomer, unassigned) [WX001B] ; value = 0.77

// field: Vd; key: O=C1N[C@@H]2COC[C@@H]2Oc2ncc(F)cc2C2COCCN2c2ccn3ncc1c3n2 (stereo partly shown) [WX005A] ; value = 0.78
